target_entity: CIT (human) (UniProt O14578)
Sequence (O14578 whole entry, looked up): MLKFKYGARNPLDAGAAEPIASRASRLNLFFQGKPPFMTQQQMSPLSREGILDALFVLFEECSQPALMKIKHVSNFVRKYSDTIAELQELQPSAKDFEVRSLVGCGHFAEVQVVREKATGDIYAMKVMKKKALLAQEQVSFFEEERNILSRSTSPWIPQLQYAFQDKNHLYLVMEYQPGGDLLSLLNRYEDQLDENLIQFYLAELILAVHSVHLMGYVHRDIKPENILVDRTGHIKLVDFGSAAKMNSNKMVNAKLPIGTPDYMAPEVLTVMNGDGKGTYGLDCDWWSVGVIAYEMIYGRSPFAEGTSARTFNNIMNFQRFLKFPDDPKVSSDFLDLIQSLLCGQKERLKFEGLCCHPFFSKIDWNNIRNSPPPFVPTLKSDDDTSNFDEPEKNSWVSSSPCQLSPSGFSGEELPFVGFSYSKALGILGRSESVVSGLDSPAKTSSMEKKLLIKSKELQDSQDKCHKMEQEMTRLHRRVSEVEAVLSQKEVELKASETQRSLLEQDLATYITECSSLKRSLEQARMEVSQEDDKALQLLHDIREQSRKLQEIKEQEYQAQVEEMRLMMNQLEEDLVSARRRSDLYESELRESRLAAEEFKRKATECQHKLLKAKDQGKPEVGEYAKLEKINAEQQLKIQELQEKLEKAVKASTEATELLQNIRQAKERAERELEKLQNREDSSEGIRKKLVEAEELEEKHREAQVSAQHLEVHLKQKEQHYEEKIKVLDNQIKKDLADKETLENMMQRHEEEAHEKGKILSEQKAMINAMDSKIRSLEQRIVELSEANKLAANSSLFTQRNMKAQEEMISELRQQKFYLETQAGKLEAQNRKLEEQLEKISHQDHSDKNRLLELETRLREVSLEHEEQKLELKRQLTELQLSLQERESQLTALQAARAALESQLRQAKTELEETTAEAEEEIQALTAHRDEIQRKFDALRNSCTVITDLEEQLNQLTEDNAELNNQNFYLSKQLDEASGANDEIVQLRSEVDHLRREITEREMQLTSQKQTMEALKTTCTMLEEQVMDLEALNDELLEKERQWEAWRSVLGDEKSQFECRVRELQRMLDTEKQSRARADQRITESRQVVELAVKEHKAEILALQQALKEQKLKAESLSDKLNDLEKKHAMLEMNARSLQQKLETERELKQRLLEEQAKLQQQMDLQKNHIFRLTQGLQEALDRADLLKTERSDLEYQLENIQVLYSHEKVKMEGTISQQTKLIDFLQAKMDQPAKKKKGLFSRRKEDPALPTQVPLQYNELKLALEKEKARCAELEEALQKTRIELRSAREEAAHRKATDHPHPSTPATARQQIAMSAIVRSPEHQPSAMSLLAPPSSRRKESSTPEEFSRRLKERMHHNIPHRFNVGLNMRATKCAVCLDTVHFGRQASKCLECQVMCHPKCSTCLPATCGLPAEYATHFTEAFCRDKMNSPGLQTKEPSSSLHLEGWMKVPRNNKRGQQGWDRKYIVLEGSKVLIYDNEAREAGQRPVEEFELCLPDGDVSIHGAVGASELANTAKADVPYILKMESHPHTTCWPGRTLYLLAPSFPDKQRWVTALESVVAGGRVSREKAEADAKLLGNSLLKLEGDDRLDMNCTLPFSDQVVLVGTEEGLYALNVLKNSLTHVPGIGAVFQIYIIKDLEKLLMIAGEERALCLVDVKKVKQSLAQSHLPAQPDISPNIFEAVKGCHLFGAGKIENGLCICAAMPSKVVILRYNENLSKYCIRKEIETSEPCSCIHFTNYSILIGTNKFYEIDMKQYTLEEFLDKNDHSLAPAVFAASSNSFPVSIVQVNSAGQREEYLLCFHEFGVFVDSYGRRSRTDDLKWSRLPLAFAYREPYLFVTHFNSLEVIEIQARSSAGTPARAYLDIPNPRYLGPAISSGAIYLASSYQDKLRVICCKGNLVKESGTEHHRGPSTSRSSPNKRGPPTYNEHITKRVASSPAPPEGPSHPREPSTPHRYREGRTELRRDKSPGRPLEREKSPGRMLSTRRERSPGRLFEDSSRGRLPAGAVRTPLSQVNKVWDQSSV
experiment: KINOMEscan competition binding
conditions: compound 10.0 µM
Provide the reported kinase still bound, per cent of control of each item.
Please append the unit to your numeric answer.

Answered examples (3):
smiles_str=N=C1NC(=O)/C(=C/c2ccc(-c3ccc(C(N)=O)cc3O)o2)S1 result_value=19%
smiles_str=CN1C(=O)c2ccccc2N(C)c2nc(Nc3ccc(N4CCC(O)CC4)cc3)ncc21 result_value=95%
smiles_str=CN1C(=O)c2ccccc2N(C)c2nc(NS(=O)(=O)c3ccc(N)cc3)ncc21 result_value=100%

Quick request: kinase still bound, per cent of control for each listed item, please.
1. CS(=O)(=O)Nc1ccc(-c2cc(/C=C3\SC(=N)NC3=O)c[nH]c2=O)cc1
2. COc1cc(N2CCC(O)CC2)ccc1Nc1ncc2c(n1)N1CCc3cccc(c31)C(=O)N2C
3. CN1C(=O)[C@H]2CCC[C@H]2N(C2CCCC2)c2nc(Nc3ccc(C(N)=O)cc3)ncc21

## Output
23%
10%
28%

###

target_entity: UniProt:O00444
Sequence (O00444 whole entry, looked up): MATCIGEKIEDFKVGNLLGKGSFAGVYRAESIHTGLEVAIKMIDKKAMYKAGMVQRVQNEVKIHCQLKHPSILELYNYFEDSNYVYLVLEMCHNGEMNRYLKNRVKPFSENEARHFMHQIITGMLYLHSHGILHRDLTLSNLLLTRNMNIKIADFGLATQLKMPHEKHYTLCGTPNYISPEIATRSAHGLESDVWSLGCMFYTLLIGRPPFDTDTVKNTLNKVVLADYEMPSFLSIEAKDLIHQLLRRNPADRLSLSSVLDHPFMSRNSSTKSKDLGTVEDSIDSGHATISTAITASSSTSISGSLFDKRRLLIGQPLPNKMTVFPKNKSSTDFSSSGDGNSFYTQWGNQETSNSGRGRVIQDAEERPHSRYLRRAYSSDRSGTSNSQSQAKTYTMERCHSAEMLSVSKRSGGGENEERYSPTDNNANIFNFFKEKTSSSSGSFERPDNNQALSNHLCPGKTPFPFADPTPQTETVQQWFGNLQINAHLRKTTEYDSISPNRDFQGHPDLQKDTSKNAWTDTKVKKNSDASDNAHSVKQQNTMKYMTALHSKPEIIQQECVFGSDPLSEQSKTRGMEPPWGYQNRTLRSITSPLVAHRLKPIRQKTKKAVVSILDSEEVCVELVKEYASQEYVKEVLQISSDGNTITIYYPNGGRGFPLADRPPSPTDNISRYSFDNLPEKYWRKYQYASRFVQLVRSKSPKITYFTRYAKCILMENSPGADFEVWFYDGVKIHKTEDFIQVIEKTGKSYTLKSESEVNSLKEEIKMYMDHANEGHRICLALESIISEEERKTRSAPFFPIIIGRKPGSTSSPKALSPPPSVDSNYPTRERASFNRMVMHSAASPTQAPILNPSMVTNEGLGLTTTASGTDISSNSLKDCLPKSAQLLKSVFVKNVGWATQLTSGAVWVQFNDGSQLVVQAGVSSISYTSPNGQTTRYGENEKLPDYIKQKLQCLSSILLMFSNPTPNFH
experiment: KINOMEscan competition binding
conditions: compound 10.0 µM
Each record gets a class by kinase still bound, per cent of control: low = under 3%, medium = from 3% up to 10%, high = 10% and over

// below: answered molecules
molecule=CCOc1cc(N2CCC(O)CC2)ccc1Nc1ncc2c(n1)N(C)c1ccccc1C(=O)N2C class_assignment=low
molecule=COc1cc(N(C)CCO)ccc1Nc1ncc2c(n1)N(C1CCCC1)CCC(=O)N2C class_assignment=high
molecule=O=C1NC(=O)/C(=C/c2c[nH]c(=O)c(-c3ccc(N4CCNCC4)nc3)c2)S1 class_assignment=high
molecule="COc1cc(N2CCC(N3CCN(C)CC3)CC2)ccc1Nc1ncc2c(n1)N1CCCC1CC(=O)N2C (stereo not given)" class_assignment=high
molecule=CS(=O)(=O)Nc1ccc(-c2ccc(/C=C3\SC(=N)NC3=O)o2)cc1 class_assignment=low
molecule=COc1cc(N2CCN(CCO)CC2)ccc1Nc1ncc2c(n1)N(C1CCCC1)CCC(=O)N2C class_assignment=medium
molecule=CN(C)C1=NC(=O)/C(=C/c2ccc(-c3ccc(S(N)(=O)=O)cc3)o2)S1 class_assignment=low
molecule=COc1cc(N2CCN(C)CC2)ccc1Nc1ncc2c(n1)Nc1ccccc1NC2=O class_assignment=low

## Input Would you mind sorting `N=C1NC(=O)/C(=C/c2ccc(-c3csc4ccccc34)o2)S1` into the appropriate category?
## Output medium

## Input Sort into band: `N=C1NC(=O)/C(=C/c2ccc(-c3ccccc3O)o2)S1`
## Output medium

## Input Lab note: which band did `CSC1=NC(=O)/C(=C/c2c[nH]c(=O)c(-c3ccc(NS(C)(=O)=O)cc3)c2)S1` land in?
## Output high

###

What kinase still bound, per cent of control was measured for each of the following?
target_entity: TYK2 JH1 catalytic (human) (UniProt P29597)
Sequence (P29597 whole entry, looked up): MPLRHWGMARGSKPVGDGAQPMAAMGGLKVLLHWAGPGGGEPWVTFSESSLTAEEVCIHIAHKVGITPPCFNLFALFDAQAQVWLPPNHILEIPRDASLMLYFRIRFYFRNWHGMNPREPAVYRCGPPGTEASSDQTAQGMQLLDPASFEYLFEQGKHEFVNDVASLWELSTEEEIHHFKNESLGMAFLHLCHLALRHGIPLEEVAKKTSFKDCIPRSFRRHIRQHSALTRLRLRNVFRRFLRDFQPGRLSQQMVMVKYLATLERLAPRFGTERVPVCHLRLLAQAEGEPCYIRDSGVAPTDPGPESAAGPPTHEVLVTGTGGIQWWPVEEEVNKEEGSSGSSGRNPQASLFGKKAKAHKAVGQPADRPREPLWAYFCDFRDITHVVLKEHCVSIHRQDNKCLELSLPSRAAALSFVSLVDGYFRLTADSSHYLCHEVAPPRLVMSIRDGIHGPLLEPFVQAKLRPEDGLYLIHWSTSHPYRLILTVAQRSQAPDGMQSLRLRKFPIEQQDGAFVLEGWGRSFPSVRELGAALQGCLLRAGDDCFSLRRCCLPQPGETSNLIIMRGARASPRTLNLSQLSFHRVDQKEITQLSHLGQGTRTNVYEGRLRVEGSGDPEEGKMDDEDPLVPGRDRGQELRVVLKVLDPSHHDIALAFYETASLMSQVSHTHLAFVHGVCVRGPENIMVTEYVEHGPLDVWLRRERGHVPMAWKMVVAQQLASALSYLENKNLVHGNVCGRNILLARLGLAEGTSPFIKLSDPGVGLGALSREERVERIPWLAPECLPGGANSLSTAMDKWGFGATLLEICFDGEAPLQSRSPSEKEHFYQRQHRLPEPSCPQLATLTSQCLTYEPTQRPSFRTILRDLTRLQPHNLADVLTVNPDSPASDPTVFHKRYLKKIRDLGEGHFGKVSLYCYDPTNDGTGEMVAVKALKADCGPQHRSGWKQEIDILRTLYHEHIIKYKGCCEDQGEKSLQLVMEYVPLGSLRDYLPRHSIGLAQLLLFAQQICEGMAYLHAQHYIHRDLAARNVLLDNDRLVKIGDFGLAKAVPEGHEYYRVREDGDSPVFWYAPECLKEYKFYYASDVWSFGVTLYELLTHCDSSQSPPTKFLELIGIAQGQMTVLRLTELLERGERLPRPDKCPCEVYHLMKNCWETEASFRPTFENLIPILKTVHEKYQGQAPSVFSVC
experiment: KINOMEscan competition binding
conditions: compound 10.0 µM
Answers are plain numbers, in %.

Before answering, review these 2 worked examples.
smiles_str=COc1cc(N2CCN(C)CC2)ccc1Nc1ncc2c(n1)N(C)c1ccccc1N(C)C2=O target_entity="TYK2 JH1 catalytic (human) (UniProt P29597)" readout="kinase still bound, per cent of control" result_value=94
smiles_str=CN1C(=O)c2ccccc2N(C)c2nc(NS(=O)(=O)c3ccc(N)cc3)ncc21 target_entity="TYK2 JH1 catalytic (human) (UniProt P29597)" readout="kinase still bound, per cent of control" result_value=38

Now examine the next entry.
Given item `CN1C(=O)[C@H]2CCC[C@H]2N(C2CCCC2)c2nc(Nc3ccc4ncccc4c3)ncc21` , the value recorded as its kinase still bound, per cent of control is 25

###

target_entity: UniProt:P37173
Sequence (P37173 whole entry, looked up): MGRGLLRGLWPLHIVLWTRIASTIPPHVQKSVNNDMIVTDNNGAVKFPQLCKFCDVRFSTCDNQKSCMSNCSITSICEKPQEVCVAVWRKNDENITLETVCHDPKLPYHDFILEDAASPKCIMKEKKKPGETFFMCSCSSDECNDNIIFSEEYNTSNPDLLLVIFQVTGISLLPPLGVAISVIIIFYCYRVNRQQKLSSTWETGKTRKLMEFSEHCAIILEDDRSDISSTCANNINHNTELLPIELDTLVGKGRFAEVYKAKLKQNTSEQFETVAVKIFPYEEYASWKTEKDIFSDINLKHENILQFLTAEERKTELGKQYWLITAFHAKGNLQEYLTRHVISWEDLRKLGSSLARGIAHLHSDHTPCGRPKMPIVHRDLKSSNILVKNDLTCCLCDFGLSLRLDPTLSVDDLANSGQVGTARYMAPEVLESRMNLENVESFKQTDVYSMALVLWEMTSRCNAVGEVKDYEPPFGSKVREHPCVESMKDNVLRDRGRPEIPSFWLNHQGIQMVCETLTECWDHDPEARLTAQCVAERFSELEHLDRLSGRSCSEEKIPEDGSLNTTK
experiment: KINOMEscan competition binding
conditions: compound 10.0 µM
readout: kinase still bound, per cent of control

Completed entries (count: 4):
smiles_str=N=C1NC(=O)/C(=C/c2ccc(-c3cncc4ccccc34)o2)S1 target_entity=UniProt:P37173 readout="kinase still bound, per cent of control" result_value=0.85%
smiles_str=COc1cc(N2CCN(C)CC2)ccc1Nc1ncc2c(n1)N(C)c1sccc1C(=O)N2C target_entity=UniProt:P37173 readout="kinase still bound, per cent of control" result_value=94%
smiles_str=N=C1NC(=O)/C(=C/c2ccc(-c3ccccc3O)o2)S1 target_entity=UniProt:P37173 readout="kinase still bound, per cent of control" result_value=3.6%
smiles_str=Nc1cccc(-c2cc(/C=C3\SC(=O)NC3=O)c[nH]c2=O)c1 target_entity=UniProt:P37173 readout="kinase still bound, per cent of control" result_value=26%

// each listed compound needs a value for kinase still bound, per cent of control
1. CN1C(=O)c2ccccc2N(C)c2nc(Nc3ccc(N4CCC(O)CC4)cc3)ncc21
2. Cc1cn(-c2cc(NC(=O)c3cccc4cc(-c5ccc(/C=C6\SC(=N)NC6=O)o5)ccc34)cc(C(F)(F)F)c2)cn1
3. COc1cc(C(N)=O)ccc1-c1ccc(/C=C2\SC(=N)NC2=O)o1

## Output
["100%", "11%", "14%"]

State the recorded kinase still bound, per cent of control for every item in the following list.
1. N=C1NC(=O)/C(=C/c2ccc(-c3ccc(C(N)=O)cc3O)o2)S1
2. N=C1NC(=O)/C(=C/c2ccc(-c3ccc(Cl)cc3)o2)S1
3. CS(=O)(=O)Nc1ccc(-c2cc(/C=C3\SC(=N)NC3=O)c[nH]c2=O)cc1

## Output
1: 9%; 2: 10%; 3: 0.85%

###

target_entity: UniProt:P17612
experiment: KINOMEscan competition binding
conditions: compound 10.0 µM
readout: kinase still bound, per cent of control
The reply must contain the numeric value and, after it, the unit.

Consider the reported kinase still bound, per cent of control for these compounds:
smiles_str=COc1cc(N2CCN(C)CC2)ccc1Nc1ncc2c(n1)Nc1ccccc1NC2=O readout="kinase still bound, per cent of control" result_value=100%
smiles_str=CN1CCN(c2ccc(C(=O)Nc3ncc4c(n3)N(C)c3ccccc3C(=O)N4C)cc2)CC1 readout="kinase still bound, per cent of control" result_value=100%
smiles_str=CN1C(=O)c2ccccc2N(C)c2nc(Nc3ccc(N4CCC(O)CC4)cc3)ncc21 readout="kinase still bound, per cent of control" result_value=100%
smiles_str=COc1cc(N2CCC(O)CC2)ccc1Nc1ncc2c(n1)N1CCc3cccc(c31)C(=O)N2C readout="kinase still bound, per cent of control" result_value=100%

Then this compound:
`COc1cc(N2CCN(C)CC2)ccc1Nc1ncc2c(n1)N(C)c1sccc1C(=O)N2C` has a reported kinase still bound, per cent of control of 97%

###

target_entity: MAP3K10 (human)
experiment: KINOMEscan competition binding
conditions: compound 10.0 µM
Exercise: state measured kinase still bound, per cent of control for each of the compounds provided.
Numbers only, in %.

Give me kinase still bound, per cent of control for each of these compounds, listed below.
1. COc1cc(N2CCN(C)CC2)ccc1Nc1ncc2c(n1)Nc1ccccc1NC2=O
2. COc1cc(N2CCN(C)CC2)ccc1Nc1ncc2c(n1)N(C)c1sccc1C(=O)N2C
3. CN1C(=O)c2ccccc2N(C)c2nc(Nc3ccc(N4CCC(O)CC4)cc3)ncc21

## Output
[100, 97, 100]

###

target_entity: SIK1 (human)
experiment: KINOMEscan competition binding
conditions: compound 10.0 µM
Would you kindly list kinase still bound, per cent of control for each of these compounds?
Answers are plain numbers, in %.

Before answering, review these 5 worked examples.
compound=CN1C(=O)c2ccccc2N(C)c2nc(NS(=O)(=O)c3ccc(N)cc3)ncc21 readout="kinase still bound, per cent of control" result_value=100
compound=CN1CCN(c2ccc(C(=O)Nc3ncc4c(n3)N(C)c3ccccc3C(=O)N4C)cc2)CC1 readout="kinase still bound, per cent of control" result_value=100
compound=COc1cc(N2CCN(C)CC2)ccc1Nc1ncc2c(n1)N(C)c1sccc1C(=O)N2C readout="kinase still bound, per cent of control" result_value=81
compound=CN1C(=O)c2ccccc2N(C)c2nc(Nc3ccc(N4CCC(O)CC4)cc3)ncc21 readout="kinase still bound, per cent of control" result_value=79
compound="COc1cc(N2CCN(C)CC2)ccc1Nc1ncc2c(n1)N(C1CCCC1)C(C)CC(=O)N2 (stereo unspecified)" readout="kinase still bound, per cent of control" result_value=14

Provide kinase still bound, per cent of control for all items below, preserving their order.
1. COc1cc(N2CCC(N3CCN(C)CC3)CC2)ccc1Nc1ncc2c(n1)N(C1CCCC1)C(C)CC(=O)N2 (stereo unspecified)
2. COc1cc(N2CCN(C)CC2)ccc1Nc1ncc2c(n1)N(c1ccccc1)CCC(=O)N2
3. COc1cc(N2CCN(C)CC2)ccc1Nc1ncc2c(n1)N(C)c1ccccc1N(C)C2=O
4. COc1cc(N2CCC(O)CC2)ccc1Nc1ncc2c(n1)N1CCc3cccc(c31)C(=O)N2C

## Output
1: 27; 2: 12; 3: 100; 4: 88

Please give kinase still bound, per cent of control for each item listed below.
1. COc1cc(N2CCN(C)CC2)ccc1Nc1ncc2c(n1)Nc1ccccc1NC2=O
2. O=C1NC(=O)/C(=C/c2c[nH]c(=O)c(-c3ccc(N4CCNCC4)nc3)c2)S1

## Output
1: 27; 2: 100
